System tested: Glutamate receptor ionotropic, NMDA 2C (Rattus norvegicus, UniProt P35439+Q00961)
Sequence (Q00961 whole entry, one chain of several): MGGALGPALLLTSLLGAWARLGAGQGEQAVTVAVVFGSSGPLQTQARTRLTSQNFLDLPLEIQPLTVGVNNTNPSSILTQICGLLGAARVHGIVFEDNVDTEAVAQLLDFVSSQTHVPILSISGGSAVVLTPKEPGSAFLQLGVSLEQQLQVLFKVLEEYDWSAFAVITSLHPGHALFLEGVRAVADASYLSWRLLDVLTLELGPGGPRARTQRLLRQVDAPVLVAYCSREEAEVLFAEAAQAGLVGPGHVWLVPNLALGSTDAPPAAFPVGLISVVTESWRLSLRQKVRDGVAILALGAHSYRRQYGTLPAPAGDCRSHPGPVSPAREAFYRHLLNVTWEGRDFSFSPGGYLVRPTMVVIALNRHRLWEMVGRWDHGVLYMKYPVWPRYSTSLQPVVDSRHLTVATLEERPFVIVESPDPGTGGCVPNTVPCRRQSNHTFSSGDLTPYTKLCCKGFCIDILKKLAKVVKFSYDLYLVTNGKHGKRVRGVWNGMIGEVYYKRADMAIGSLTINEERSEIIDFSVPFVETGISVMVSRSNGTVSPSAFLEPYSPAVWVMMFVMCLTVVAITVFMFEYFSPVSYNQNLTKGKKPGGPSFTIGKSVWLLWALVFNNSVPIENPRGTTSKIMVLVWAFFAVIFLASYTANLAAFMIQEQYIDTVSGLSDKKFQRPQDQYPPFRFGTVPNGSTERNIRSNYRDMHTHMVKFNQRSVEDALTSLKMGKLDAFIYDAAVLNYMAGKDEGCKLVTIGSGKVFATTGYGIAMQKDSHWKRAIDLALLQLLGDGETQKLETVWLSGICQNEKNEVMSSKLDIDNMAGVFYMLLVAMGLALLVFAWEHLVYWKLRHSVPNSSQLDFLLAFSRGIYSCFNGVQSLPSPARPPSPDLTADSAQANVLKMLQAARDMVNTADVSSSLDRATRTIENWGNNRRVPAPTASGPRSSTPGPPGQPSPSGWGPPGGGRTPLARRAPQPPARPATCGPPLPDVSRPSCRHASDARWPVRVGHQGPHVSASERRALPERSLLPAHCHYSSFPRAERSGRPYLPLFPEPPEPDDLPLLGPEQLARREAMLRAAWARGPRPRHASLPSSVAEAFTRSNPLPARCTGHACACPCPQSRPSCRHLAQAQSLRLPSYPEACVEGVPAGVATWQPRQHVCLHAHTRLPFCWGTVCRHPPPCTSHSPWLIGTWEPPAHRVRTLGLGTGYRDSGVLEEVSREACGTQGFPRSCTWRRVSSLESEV
Method: Concentration required for 50% Inhibition of responses at cloned NR1A/2C N-methyl-D-aspartate (NMDA) expressed in Xenopus oocytes
pIC50: −log10 of the molar value.
Reported endpoint: pIC50

These recorded examples may help you get a feel for the data.
> print(dat)
                                smiles.repr  value.measured
1        Oc1ccc(C#CCN2CCC(Cc3ccccc3)CC2)cc1          < 4.00
2  C(#Cc1ccc2cc[nH]c2c1)CCN1CCC(Cc2ccccc2)CC1          < 4.00

Task item: Could you share which pIC50 value was measured for O=C1Nc2ccc(C#CCCN3CCC(Cc4ccccc4)CC3)cc2C1=O ?
Reply: < 4.00

----------
System tested: D(2) dopamine receptor (Rattus norvegicus, UniProt P61169)
Sequence (P61169 whole entry): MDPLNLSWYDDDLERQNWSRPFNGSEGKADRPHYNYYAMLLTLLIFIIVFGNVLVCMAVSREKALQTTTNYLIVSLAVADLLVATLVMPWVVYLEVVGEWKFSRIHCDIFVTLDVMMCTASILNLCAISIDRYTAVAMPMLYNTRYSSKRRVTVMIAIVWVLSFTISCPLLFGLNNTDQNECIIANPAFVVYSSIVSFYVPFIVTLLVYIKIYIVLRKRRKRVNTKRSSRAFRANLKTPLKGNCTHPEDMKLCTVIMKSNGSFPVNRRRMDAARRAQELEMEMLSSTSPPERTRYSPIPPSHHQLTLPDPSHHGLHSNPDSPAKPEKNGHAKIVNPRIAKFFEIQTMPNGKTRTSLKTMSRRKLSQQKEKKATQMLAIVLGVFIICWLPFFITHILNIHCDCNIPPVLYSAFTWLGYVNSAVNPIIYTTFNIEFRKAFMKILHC
Method: Displacement of [3H]raclopride at Dopamine receptor D2 in brain striata (n=1)
The entries below come with measured pIC50 values attached.
Note: pIC50 values are expressed as the negative base-10 logarithm of concentration in M.

> print(dat)
                                smiles.repr  value.measured
1  Cc1ccc(CC2CCN(CC#Cc3ccc4[nH]c(O)nc4c3)CC2)cc1            4.85

Task item: Name the reported pIC50 value associated with the molecule Oc1nc2cc(C#CCN3CCC(Cc4ccccc4)CC3)ccc2[nH]1
Reply: 5.59

Task item: Give the measured pIC50 of Oc1nc2cc(C#CCN3CCC(O)(Cc4ccccc4)CC3)ccc2[nH]1 .
Reply: 4.07

Task item: Quick one: pIC50 of Oc1nc2cc(C#CCN3CCC(O)(Cc4ccc(F)cc4)CC3)ccc2[nH]1 ?
Reply: 4.39

Task item: Which pIC50 is reported for this molecule? COc1ccc(CC2CCN(CC#Cc3ccc4[nH]c(O)nc4c3)CC2)cc1
Reply: 5.00

Task item: Fill blank: measured pIC50 of the molecule Oc1nc2cc(C#CCN3CCC(Cc4cccc(F)c4)CC3)ccc2[nH]1 is ____.
Reply: 5.41

Task item: // query pIC50 value for entry Oc1nc2cc(C#CCN3CCC(Cc4ccc(F)cc4)CC3)ccc2[nH]1
Reply: 5.77

Task item: Give its pIC50 value. Item: Oc1nc2cc(C#CCN3CCC(Cc4ccc(Cl)cc4)CC3)ccc2[nH]1
Reply: 5.43

----------
System tested: Glutamate receptor ionotropic, NMDA 1 (Homo sapiens, UniProt Q05586+Q12879)
Method: Concentration required for 50% Inhibition of responses at cloned NR1A/2A NMDA expressed in Xenopus oocytes
Each entry below carries its recorded pIC50.
pIC50 here: minus log base 10 of the concentration, concentration in moles per litre.

Examples with their reported pIC50 follow.
> print(dat)
                                smiles.repr                             system.tested  reported.endpoint  value.measured
1  S=c1[nH]c2ccc(C#CCN3CCC(Cc4ccccc4)CC3)cc2[nH]1  Glutamate receptor ionotropic, NMDA 1 (Homo sapiens, UniProt Q05586+Q12879)              pIC50            4.60
2  C(#Cc1ccc2[nH]ncc2c1)CCN1CCC(Cc2ccccc2)CC1  Glutamate receptor ionotropic, NMDA 1 (Homo sapiens, UniProt Q05586+Q12879)              pIC50            4.02
3  O=c1[nH]c2ccc(C#CCCN3CCC(Cc4ccccc4)CC3)cc2[nH]1  Glutamate receptor ionotropic, NMDA 1 (Homo sapiens, UniProt Q05586+Q12879)              pIC50            4.41
4  O=c1[nH]c2ccc(C#CCCN3CCC(Cc4ccccc4)CC3)cc2o1  Glutamate receptor ionotropic, NMDA 1 (Homo sapiens, UniProt Q05586+Q12879)              pIC50            4.41
5  O=C1Nc2ccc(C#CCCN3CCC(Cc4ccccc4)CC3)cc2C1=O  Glutamate receptor ionotropic, NMDA 1 (Homo sapiens, UniProt Q05586+Q12879)              pIC50            4.24

Task item: May I ask what pIC50 has been recorded for S=c1[nH]c2ccc(C#CCCN3CCC(Cc4ccccc4)CC3)cc2[nH]1 ?
Reply: 4.12

Task item: Can you look up the measured pIC50 of Oc1nc2cc(C#CCN3CCC(Cc4ccc(F)cc4)CC3)ccc2[nH]1 for me?
Reply: 4.42

Task item: Field request: pIC50 | item: Cn1c(=O)[nH]c2cc(C#CCN3CCC(Cc4ccccc4)CC3)ccc21
Reply: 4.05

Task item: Fill blank: measured pIC50 of the compound O=C1Cc2cc(C#CCCN3CCC(Cc4ccccc4)CC3)ccc2N1 is ____.
Reply: 4.28
